assayed.target: T1, human CD112R on GS-J2C/CD112R effector cells (human, UniProt Q6DKI7 1-326)
T1 sequence (looked up): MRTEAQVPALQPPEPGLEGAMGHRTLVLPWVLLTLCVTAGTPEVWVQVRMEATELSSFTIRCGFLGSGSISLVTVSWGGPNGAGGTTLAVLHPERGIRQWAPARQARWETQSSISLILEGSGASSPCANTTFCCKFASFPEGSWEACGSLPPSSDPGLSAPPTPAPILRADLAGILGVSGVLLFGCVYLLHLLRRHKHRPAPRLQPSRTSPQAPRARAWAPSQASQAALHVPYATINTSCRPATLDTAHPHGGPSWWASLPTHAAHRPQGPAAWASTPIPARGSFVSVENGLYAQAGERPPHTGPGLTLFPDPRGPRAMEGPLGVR
method.notes: cell-based or functional assay
endpoint.label: EC50 (Blocking effects of the antibodies, reporter gene method) (µg/mL)

binder	recorded.measurement
C152 (antibody, human IgG1, kappa, V domains shown) VH: QVQLQQSGTILARPGASVKMSCRASDYTFTDYWIQWIKQRPGQGLEWIGAIFPENGDTRYTQKFKGRATLTADKSSSTAYMQVNSLTSEDSAVYYCATFINYVDYWGQGTTLTVSS VL: QIVLIQSPAIMSASPGEKVTMTCSASSSVNNIHWYQQKSGTSPKRWIYDTTKLTSGVPARFSGSGSGTSYSLTISSMEAEDAATYYCQQWNINPYTFGGGTKLEIKR	0.082
C24 (antibody, human IgG1, kappa, V domains shown) VH: QVQLKQSGPGLVQPSQNLSITCTVSGFSLTGYGINWVRQSPGKGLEWLGVIWSGGNTEYNAAFRSRLSISKDTSKSQVFLKMNSLQADDTAIYSCARDSTGLYAMDYWGPGTSVTVSS VL: DLQMTQTTSSLSASLGDRVTISCRTSQDISNFLNWYQQKPDGPLKLLIYYTSRLHSGVPSRFSGSGSGTDYSLTISNLEQEDIATYFCQQGYMLPPTFGGGTKLEIKR	0.05
